B1: library; a variant is named by its letters at N, in order (parent)
chain: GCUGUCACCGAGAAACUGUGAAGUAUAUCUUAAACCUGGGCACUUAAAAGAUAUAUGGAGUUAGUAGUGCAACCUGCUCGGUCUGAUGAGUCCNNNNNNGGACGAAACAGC

- Variants of: B1
- test-method-notes: normalized RNA/DNA level with ligand (relative to sTRSVctl = 100) (log10 (% of sTRSVctl)); HEK293T; ligand: cyclic di-GMP (c-di-GMP-II aptamer); ligand concentration (+) RNA-Seq: 1 mM; higher = less ribozyme self-cleavage, higher mRNA level
- experimental-conditions: reporter: mCherry (pCS4076), ligand present: yes
# normalized RNA/DNA level with ligand (log10) values compiled below
property: normalized RNA/DNA level with ligand (log10)

{"mutant": "AAGCUU", "result-number": 1.84}
{"mutant": "CUGUGG", "result-number": 1.85}
{"mutant": "GCCAAC", "result-number": 1.66}
{"mutant": "CAGAAU", "result-number": 1.53}
{"mutant": "CGGGAC", "result-number": 1.79}
{"mutant": "UAGUCU", "result-number": 1.84}
{"mutant": "UUAGCG", "result-number": 1.86}
{"mutant": "GAGACG", "result-number": 1.83}
{"mutant": "CUGUAA", "result-number": 1.51}
{"mutant": "GUGUAA", "result-number": 1.67}
{"mutant": "CCAAGG", "result-number": 1.8}
{"mutant": "UCCAUU", "result-number": 1.81}
{"mutant": "GAUUUA", "result-number": 1.81}
{"mutant": "UGGGCA", "result-number": 1.93}
{"mutant": "CAGGGA", "result-number": 1.67}
{"mutant": "AACCGU", "result-number": 1.74}
{"mutant": "AUGUUU", "result-number": 1.77}
{"mutant": "UACAAG", "result-number": 1.8}
{"mutant": "GUUAGA", "result-number": 1.73}
{"mutant": "CCGGGA", "result-number": 1.69}
{"mutant": "UUUCUA", "result-number": 1.88}
{"mutant": "CGAAUG", "result-number": 1.85}
